tested on: Staphylococcus aureus Ap01; assay: MIC, standard serial dilution method; format: cell-based; conditions: AP01, pH 7, read-out: MIC
endpoint_name: MIC (µg/mL)
Answer in µg/mL, number only, no unit symbol.

If you can, please state the reported MIC value of NC[C@@H](F)[C@H](O)C(=O)N[C@@H]1C[C@H](N)[C@@H](O[C@H]2O[C@H](CN)[C@@H](O)[C@H](O)[C@H]2N)[C@H](O)[C@H]1O[C@H]1O[C@H](CO)[C@@H](O)[C@H](N)[C@H]1O . 6.25

If you can, please state the reported MIC value of NC[C@@H](F)[C@H](O)C(=O)N[C@@H]1C[C@H](N)[C@@H](O[C@H]2O[C@H](CN)[C@@H](O)C[C@H]2N)[C@H](O)[C@H]1O[C@H]1O[C@H](CO)[C@@H](O)[C@H](N)[C@H]1O . 0.78

If you can, please state the reported MIC value of NC[C@@H](F)[C@H](O)C(=O)N[C@@H]1C[C@H](N)[C@@H](O[C@H]2O[C@H](CN)[C@@H](O)[C@H](O)[C@H]2O)[C@H](O)[C@H]1O[C@H]1O[C@H](CO)[C@@H](O)[C@H](N)[C@H]1O . 6.25

If you can, please state the reported MIC value of NC[C@@H](F)[C@H](O)C(=O)N[C@@H]1C[C@H](N)[C@@H](O[C@H]2O[C@H](CN)[C@@H](O)C[C@H]2F)[C@H](O)[C@H]1O[C@H]1O[C@H](CO)[C@@H](O)[C@H](N)[C@H]1O . 1.56

If you can, please state the reported MIC value of NC[C@@H](F)[C@H](O)C(=O)N[C@@H]1C[C@H](N)[C@@H](O[C@H]2O[C@H](CN)[C@@H](O)C[C@H]2N)[C@H](F)[C@H]1O[C@H]1O[C@H](CO)[C@@H](O)[C@H](N)[C@H]1O . 0.78

###

tested on: Staphylococcus aureus Ap01; assay: MIC, standard serial dilution method; assay type: cell-based; settings: AP01, pH 7, read-out: MIC
endpoint_name: MIC (µg/mL)
Answer in µg/mL, number only, no unit symbol.

Staphylococcus aureus Ap01 / MIC / NC[C@@H]1CC[C@@H](N)[C@@H](O[C@H]2[C@H](F)[C@@H](O[C@H]3O[C@H](CO)[C@@H](O)[C@H](N)[C@H]3O)[C@H](NC(=O)[C@@H](O)[C@H](F)CN)C[C@@H]2N)O1 : value? 0.78

Staphylococcus aureus Ap01 / MIC / NC[C@@H]1CC[C@@H](N)[C@@H](O[C@H]2[C@H](O)[C@@H](O[C@H]3O[C@H](CO)[C@@H](O)[C@H](N)[C@H]3O)[C@H](NC(=O)[C@@H](O)[C@H](F)CN)C[C@@H]2N)O1 : value? 0.78

###

system: Staphylococcus aureus Ap01; test: MIC, standard serial dilution method; assay type: cell-based; conditions: AP01, pH 7, read-out: MIC
endpoint_name: MIC (µg/mL)
Answer in µg/mL, number only, no unit symbol.

If you can, please state the reported MIC value of NC[C@@H](F)[C@H](O)C(=O)N[C@@H]1C[C@H](N)[C@@H](O[C@H]2O[C@H](CN)[C@@H](O)[C@H](O)[C@H]2N)[C@H](F)[C@H]1O[C@H]1O[C@H](CO)[C@@H](O)[C@H](N)[C@H]1O . 6.25

If you can, please state the reported MIC value of NC[C@@H](F)[C@H](O)C(=O)N[C@@H]1C[C@H](N)[C@@H](O[C@H]2O[C@H](CN)[C@@H](O)[C@H](O)[C@H]2O)[C@H](F)[C@H]1O[C@H]1O[C@H](CO)[C@@H](O)[C@H](N)[C@H]1O . 6.25

If you can, please state the reported MIC value of NC[C@@H](F)[C@H](O)C(=O)N[C@@H]1C[C@H](N)[C@@H](O[C@@H]2CC[C@H](O)[C@@H](CN)O2)[C@H](O)[C@H]1O[C@H]1O[C@H](CO)[C@@H](O)[C@H](N)[C@H]1O . 1.56

If you can, please state the reported MIC value of NCC[C@H](O)C(=O)N[C@@H]1C[C@H](N)[C@@H](O[C@H]2O[C@H](CN)CC[C@H]2N)[C@H](O)[C@H]1O[C@H]1O[C@H](CO)[C@@H](O)[C@H](N)[C@H]1O [Habekacin, reference compound] . 0.39

###

Consider the following compounds; for each one, report its MIC.
Report field: quantity (unit follows the number).

Escherichia coli K-12 LA 290 R55 / MIC / NC[C@@H](F)[C@H](O)C(=O)N[C@@H]1C[C@H](N)[C@@H](O[C@H]2O[C@H](CN)[C@@H](O)C[C@H]2N)[C@H](O)[C@H]1O[C@H]1O[C@H](CO)[C@@H](O)[C@H](N)[C@H]1O : value? 0.39 µg/mL

Escherichia coli K-12 LA 290 R55 / MIC / NC[C@@H](F)[C@H](O)C(=O)N[C@@H]1C[C@H](N)[C@@H](O[C@H]2O[C@H](CN)[C@@H](O)[C@H](O)[C@H]2N)[C@H](F)[C@H]1O[C@H]1O[C@H](CO)[C@@H](O)[C@H](N)[C@H]1O : value? 0.39 µg/mL

Escherichia coli K-12 LA 290 R55 / MIC / NC[C@@H](F)[C@H](O)C(=O)N[C@@H]1C[C@H](N)[C@@H](O[C@H]2O[C@H](CN)[C@@H](O)[C@H](O)[C@H]2O)[C@H](F)[C@H]1O[C@H]1O[C@H](CO)[C@@H](O)[C@H](N)[C@H]1O : value? 0.78 µg/mL

Escherichia coli K-12 LA 290 R55 / MIC / NC[C@@H]1CC[C@@H](N)[C@@H](O[C@H]2[C@H](F)[C@@H](O[C@H]3O[C@H](CO)[C@@H](O)[C@H](N)[C@H]3O)[C@H](NC(=O)[C@@H](O)[C@H](F)CN)C[C@@H]2N)O1 : value? 0.39 µg/mL

Escherichia coli K-12 LA 290 R55 / MIC / NCC[C@H](O)C(=O)N[C@@H]1C[C@H](N)[C@@H](O[C@H]2O[C@H](CN)[C@@H](O)[C@H](O)[C@H]2O)[C@H](O)[C@H]1O[C@H]1O[C@H](CO)[C@@H](O)[C@H](N)[C@H]1O [Amikacin, reference compound] : value? 1.56 µg/mL

Escherichia coli K-12 LA 290 R55 / MIC / NC[C@@H](F)[C@H](O)C(=O)N[C@@H]1C[C@H](N)[C@@H](O[C@H]2O[C@H](CN)[C@@H](O)[C@H](O)[C@H]2N)[C@H](O)[C@H]1O[C@H]1O[C@H](CO)[C@@H](O)[C@H](N)[C@H]1O : value? 0.78 µg/mL

Escherichia coli K-12 LA 290 R55 / MIC / NC[C@@H](F)[C@H](O)C(=O)N[C@@H]1C[C@H](N)[C@@H](O[C@H]2O[C@H](CN)[C@@H](O)[C@H](O)[C@H]2O)[C@H](O)[C@H]1O[C@H]1O[C@H](CO)[C@@H](O)[C@H](N)[C@H]1O : value? 1.56 µg/mL

Escherichia coli K-12 LA 290 R55 / MIC / NC[C@@H](F)[C@H](O)C(=O)N[C@@H]1C[C@H](N)[C@@H](O[C@H]2O[C@H](CN)[C@@H](O)C[C@H]2N)[C@H](F)[C@H]1O[C@H]1O[C@H](CO)[C@@H](O)[C@H](N)[C@H]1O : value? 0.39 µg/mL

Escherichia coli K-12 LA 290 R55 / MIC / NCC[C@H](O)C(=O)N[C@@H]1C[C@H](N)[C@@H](O[C@H]2O[C@H](CN)CC[C@H]2N)[C@H](O)[C@H]1O[C@H]1O[C@H](CO)[C@@H](O)[C@H](N)[C@H]1O [Habekacin, reference compound] : value? 0.78 µg/mL

Escherichia coli K-12 LA 290 R55 / MIC / NC[C@@H](F)[C@H](O)C(=O)N[C@@H]1C[C@H](N)[C@@H](O[C@@H]2CC[C@H](O)[C@@H](CN)O2)[C@H](O)[C@H]1O[C@H]1O[C@H](CO)[C@@H](O)[C@H](N)[C@H]1O : value? 0.78 µg/mL

Entry source: patent US4873225A
